Read-out: Interferon-gamma inducible Protein 10 (IP10), CXCL10 (gene 3627)
measurement-protocol: BSK_BE3C_IP10: BioMAP Diversity Plus: BE3C Assay for Interferon-gamma inducible Protein 10 (IP10) Biomarker Activity (AID 2283034)
reported-conditions: primary human bronchial epithelial cells; actives raise or lower the signal
Activity calls are given as the source filed them. How the source made its calls: active means hit-call score of the fitted dose curve at least 0.9, where 1 is the maximum; inactive means score below 0.9.
recorded-metric: AC50

`CNC(=O)[C@H]1O[C@@H](n2cnc3c(NCc4cc(Cl)ccc4OCc4cc(C)no4)ncnc32)[C@H](O)[C@@H]1N` has a reported AC50 of inactive

`CCOC(=O)CCC(=O)OCC` has a reported AC50 of inactive

`CCCCCCCCCCCCCO` has a reported AC50 of 29.7 µM (active)

`O=C(N[C@@H](Cc1ccccc1)[C@@H](O)C(=O)N1C[C@@H](O)[C@@H](O)C1)c1cc2cc(Cl)ccc2[nH]1` has a reported AC50 of inactive

----------
Read-out: urokinase plasminogen activator (uPA), PLAU (gene 5328)
measurement-protocol: BSK_BE3C_uPA: BioMAP Diversity Plus: BE3C Assay for urokinase plasminogen activator (uPA) Biomarker Activity (AID 2283038);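 further: uPA protein level quantified by ELISA in cell cultures; uPA read one day after compound addition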
reported-conditions: primary human bronchial epithelial cells; actives raise or lower the signal
Activity calls are given as the source filed them. The calls were made as follows: active = hit-call score of the fitted dose curve at least 0.9, where 1 is the maximum; inactive = score below 0.9.
Form entry, call: pick from True for active, False for inactive

// known answers, use as guide
Please let me know the test result on file for `CCCCCCCC=O` .
False

Please let me know the test result on file for `CCOC(=O)C(C)(C)Oc1ccc(Cl)cc1` .
False

Please let me know the test result on file for `CCNc1cccc(C)c1` .
False

---
Please let me know the test result on file for `COc1ccc(S(=O)(=O)N2C(=O)[C@@](c3ccccc3OC)(N3C[C@H](O)C[C@H]3C(=O)N(C)C)c3cc(Cl)ccc32)c(OC)c1` .
False

Please let me know the test result on file for `CCCCc1ccc2c(n1)[C@@H](c1ccc(OC)cc1C[C@H](C)C(=O)O)[C@H](C(=O)O)[C@H]2c1ccc2c(c1)OCO2` .
False

Please let me know the test result on file for `Cc1ccccc1Cl` .
False

Please let me know the test result on file for CC(=O)C(C)=CC1C(C)=CCCC1(C)C (configuration not stated) .
False

Please let me know the test result on file for `Cc1cccc(Nc2cc(Cl)nc(SCC(=O)O)n2)c1C` .
False

----------
Read-out: Human Leukocyte Antigen - DR isotype (HLADR), HLA-DRA (gene 3122)
measurement-protocol: BSK_3C_HLADR: BioMAP Diversity Plus: 3C Assay for Human Leukocyte Antigen - DR isotype (HLADR) Biomarker Activity (AID 2283019)
reported-conditions: primary human endothelial cells (HUVEC); actives raise or lower the signal
Method: BSK_3C is a cell-based, multiplexed-readout assay that uses umbilical vein endothelium, a human vascular primary cell, with measurements taken at 24 hours after chemical dosing in a 96-well plate.BSK_3C_HLADR is an assay component measured in the BSK_3C assay. It measures HLA-DR antibody related to regulation of gene expression using ELISA technology.Data from the assay component BSK_3C_HLADR was analyzed into 1 assay endpoint. […]
Active and inactive are the calls of the source. How the source made its calls: active means hit-call score of the fitted dose curve at least 0.9, where 1 is the maximum; inactive means score below 0.9.
recorded-metric: AC50

See these solved cases before continuing.
CC(CO)OC(C)CO (stereo not drawn) (tested in a mixture with another compound) has a reported AC50 of inactive

`Cc1ccc(N(C)C)cc1` has a reported AC50 of inactive

`CC1=C(/C=C/C(C)=C/C=C/C(C)=C/CO)C(C)(C)CCC1` has a reported AC50 of 25.3 µM (active)

`CC(=O)OCCOCCOCCOC(C)=O` has a reported AC50 of inactive

`Nc1ccc(S(=O)(=O)c2ccc(N)cc2)cc1` has a reported AC50 of inactive

---
`CCCCCC(=O)O` has a reported AC50 of inactive

`Cc1ccc(Cl)cc1` has a reported AC50 of inactive

`CCCCCCCCCCC` has a reported AC50 of inactive

`COCCOCCOC` has a reported AC50 of inactive

`Nc1ccccc1N` has a reported AC50 of 20 µM (active)

`CCCCc1ccc2c(n1)[C@@H](c1ccc(OC)cc1C[C@H](C)C(=O)O)[C@H](C(=O)O)[C@H]2c1ccc2c(c1)OCO2` has a reported AC50 of inactive
